- Tested On: T1, IL-2Rβγ on HEK-Blue IL-2Rβγ reporter cells (InvivoGen) (UniProt P14784 27-551; P31785 23-369, limits assumed)
- T1 sequence (looked up) 1: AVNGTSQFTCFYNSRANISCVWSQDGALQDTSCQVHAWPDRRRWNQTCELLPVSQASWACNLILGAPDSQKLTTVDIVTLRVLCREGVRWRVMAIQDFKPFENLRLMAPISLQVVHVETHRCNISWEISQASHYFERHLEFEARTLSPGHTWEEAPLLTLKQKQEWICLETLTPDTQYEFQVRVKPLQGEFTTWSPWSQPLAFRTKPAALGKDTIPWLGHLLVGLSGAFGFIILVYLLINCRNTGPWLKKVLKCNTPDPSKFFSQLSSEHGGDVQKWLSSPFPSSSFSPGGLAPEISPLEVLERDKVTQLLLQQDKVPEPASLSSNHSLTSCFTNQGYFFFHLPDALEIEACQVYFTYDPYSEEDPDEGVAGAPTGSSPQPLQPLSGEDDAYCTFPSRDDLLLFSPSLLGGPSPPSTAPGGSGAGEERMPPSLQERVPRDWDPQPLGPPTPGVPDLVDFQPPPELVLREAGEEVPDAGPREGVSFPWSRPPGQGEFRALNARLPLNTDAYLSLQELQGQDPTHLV
- T1 sequence (looked up) 2: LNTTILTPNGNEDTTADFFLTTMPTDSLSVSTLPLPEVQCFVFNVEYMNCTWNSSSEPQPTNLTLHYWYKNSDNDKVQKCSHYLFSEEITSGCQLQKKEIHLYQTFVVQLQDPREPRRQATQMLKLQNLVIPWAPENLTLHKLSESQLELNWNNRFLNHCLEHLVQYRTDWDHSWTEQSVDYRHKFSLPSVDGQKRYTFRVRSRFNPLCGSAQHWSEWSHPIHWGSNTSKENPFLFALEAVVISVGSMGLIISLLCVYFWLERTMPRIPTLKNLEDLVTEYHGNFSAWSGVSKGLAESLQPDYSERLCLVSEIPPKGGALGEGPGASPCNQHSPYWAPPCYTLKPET
- Test Summary: cell-based or functional assay
[ ]: non-standard residue; d: D form. 8x polyethylene glycol‑amino = O-(8x polyethylene glycol-amino)-tyrosine, SITE 45; 9x polyethylene glycol‑azido = O-(9x polyethylene glycol-azido)-tyrosine, SITE 42; Ygp = O-(8x polyethylene glycol-amino)-tyrosine (Tyr, amino-capped PEG8); Yn3 = O-(9x polyethylene glycol-azido)-tyrosine (Tyr, azide-capped PEG9); hSer = N[C@@H](CCO)C(=O)O; Nle = CCCC[C@H](N)C(=O)O
Measurement Name: Average EC50, HEK-Blue IL-2R (CD122+, CD132+) Reporter Assay, uPa cleaved molecule (nM)
Report as a plain number; the unit nM is understood.

{"Binder": "CMP-315, uPa cleaved (ligand, ends and bridges not checked; also: further groups not given here, tested after uPa cleavage, remaining product not given here) APTSSSTKKTQLQLEHLLLDLQKILNGINNYKNPKLTR[Nle]L[hSer][Yn3]KF[Ygp][Nle]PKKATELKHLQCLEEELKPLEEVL[hSer]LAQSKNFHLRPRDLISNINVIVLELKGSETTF[hSer]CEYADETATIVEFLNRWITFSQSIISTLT", "Result Number": 0.0581}

Ask | Form field: reported Average EC50, HEK-Blue IL-2R (CD122+, CD132+) Reporter Assay, uPa cleaved molecule of CMP-316, uPa cleaved (ligand, ends and bridges not checked; also: further groups not given here, tested after uPa cleavage, remaining product not given here) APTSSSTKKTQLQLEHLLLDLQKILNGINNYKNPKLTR[Nle]L[hSer][Yn3]KF[Ygp][Nle]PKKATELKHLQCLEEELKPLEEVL[hSer]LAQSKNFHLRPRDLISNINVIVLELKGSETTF[hSer]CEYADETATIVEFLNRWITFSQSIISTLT
Reply | 0.0884

Ask | Form field: reported Average EC50, HEK-Blue IL-2R (CD122+, CD132+) Reporter Assay, uPa cleaved molecule of CMP-330, uPa cleaved (ligand, not fully specified; also: before the cut Lys9 and Glu23 side chains are bridged by a peptide linker, what remains after the cut not given here) APTSSSTKKTQLQLEHLLLDLQEILNGINNYKNPKLTR[Nle]L[hSer]Y(9x polyethylene glycol‑azido)KFY(8x polyethylene glycol‑amino)[Nle]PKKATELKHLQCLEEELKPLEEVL[hSer]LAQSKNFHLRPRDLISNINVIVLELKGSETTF[hSer]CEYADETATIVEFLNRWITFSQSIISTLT
Reply | 1.73
